- Target under test: Prostaglandin G/H synthase 1 (Homo sapiens)
- Sequence (P23219 whole entry): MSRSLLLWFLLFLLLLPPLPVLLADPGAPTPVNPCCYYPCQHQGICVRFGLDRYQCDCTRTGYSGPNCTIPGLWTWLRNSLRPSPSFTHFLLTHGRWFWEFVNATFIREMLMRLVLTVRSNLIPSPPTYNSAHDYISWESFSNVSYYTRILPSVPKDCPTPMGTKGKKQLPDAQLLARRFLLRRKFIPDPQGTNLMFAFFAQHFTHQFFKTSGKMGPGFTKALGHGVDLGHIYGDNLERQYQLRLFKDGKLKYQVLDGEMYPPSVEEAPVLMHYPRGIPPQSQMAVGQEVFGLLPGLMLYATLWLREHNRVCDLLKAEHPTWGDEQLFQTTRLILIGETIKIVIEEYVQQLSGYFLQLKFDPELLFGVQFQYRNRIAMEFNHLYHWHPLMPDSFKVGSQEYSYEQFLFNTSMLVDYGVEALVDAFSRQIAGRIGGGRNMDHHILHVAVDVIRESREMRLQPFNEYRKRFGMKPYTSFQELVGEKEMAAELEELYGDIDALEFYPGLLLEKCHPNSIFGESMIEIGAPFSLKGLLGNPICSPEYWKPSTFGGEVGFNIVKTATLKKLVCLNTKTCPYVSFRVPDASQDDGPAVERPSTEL
- Procedure details: Inhibition of COX1-mediated 12-HHT production in human platelet assessed as residual activity at 10 uM after 5 mins by HPLC analysis
Measure name: Activity (%)
Value expressed in %; do not type the unit.

Cc1ccc(-c2cc(CCC(=O)N3CCN(Cc4ccc(C(C)(C)C)cc4)CC3)nn2-c2ccc3ccccc3n2)cc1 ... 8.2

## Task What value of measured Activity is listed for CC(C)(C)c1ccc(CN2CCN(C(=O)CCc3cc(-c4ccc(F)cc4)n(-c4ccc(Cl)nn4)n3)CC2)cc1 ?
## Result 82.9

## Task What value of measured Activity is listed for Cc1ccc(-c2cc(CCC(=O)N3CCN(Cc4ccc(C(C)(C)C)cc4)CC3)nn2-c2ccccc2)cc1 ?
## Result 21

## Task What value of measured Activity is listed for Cc1ccc(-c2cc(CCC(=O)Oc3ccc(C(C)C)cc3)nn2-c2ccccc2)cc1 ?
## Result 10.6

## Task What value of measured Activity is listed for CCOC(=O)C1CCN(C(=O)CCc2cc(-c3ccc(C)cc3)n(-c3ccccc3)n2)CC1 ?
## Result 57.1

## Task What value of measured Activity is listed for Cc1ccc(-c2cc(CCC(=O)Oc3ccc(C(C)C)cc3)nn2-c2ccc(Cl)nn2)cc1 ?
## Result 51.1

## Task What value of measured Activity is listed for CCOC(=O)C1CCN(C(=O)CCc2cc(-c3ccc(C)cc3)n(-c3ccc4ccccc4n3)n2)CC1 ?
## Result 15.9

## Task What value of measured Activity is listed for CCOC(=O)C1CCN(C(=O)CCc2cc(-c3ccc(C(F)(F)F)cc3)n(-c3ccc(Cl)nn3)n2)CC1 ?
## Result 102
